test: Acute toxicity, intraperitoneal; details: mouse, in vivo, ip, female Balb/c mice aged 7 weeks
Consider the following compounds; for each one, report its LD50.

So, [C-]#[N+]C(=Cc1ccc(OC)cc1)C(=Cc1ccc(OC(=O)c2ccccc2)cc1)[N+]#[C-] ? Its LD50 was > 300 mg/kg

[C-]#[N+]C(=Cc1ccc(OC)cc1)C(=Cc1ccc(OCCF)cc1)[N+]#[C-] yielded LD50 of > 120 mg/kg

The compound [C-]#[N+]C(=Cc1ccc(OC)cc1)C(=Cc1ccc(OCc2ccccn2)cc1)[N+]#[C-] showed LD50 equal to > 120 mg/kg

LD50 in this record for [C-]#[N+]C(=Cc1ccc(OC)cc1)C(=Cc1ccc(OCC(=O)OCC)cc1)[N+]#[C-] : 120 mg/kg

Lookup result for [C-]#[N+]C(=Cc1ccc(OC)cc1)C(=Cc1ccc(OCc2ccc(Cl)cc2)cc1)[N+]#[C-] ; measured LD50: > 300 mg/kg
